assaySystem: UniProt:F1KYJ9
experimentalDetails: cell-based
Counter-ions that a name gives are not always drawn.
reportedEndpoint: EC50

[[record]]
compound = "CN1CCC[C@H]1c1cccnc1 [NIC, (-)-nicotine hydrogen tartrate]"
reportedendpoint = "EC50"
valuemeasured = "5.1 µM"


----------
assaySystem: Asu-ACR-16 (Ascaris suum, UniProt F1KYJ9)
Sequence (F1KYJ9 entry or part of it): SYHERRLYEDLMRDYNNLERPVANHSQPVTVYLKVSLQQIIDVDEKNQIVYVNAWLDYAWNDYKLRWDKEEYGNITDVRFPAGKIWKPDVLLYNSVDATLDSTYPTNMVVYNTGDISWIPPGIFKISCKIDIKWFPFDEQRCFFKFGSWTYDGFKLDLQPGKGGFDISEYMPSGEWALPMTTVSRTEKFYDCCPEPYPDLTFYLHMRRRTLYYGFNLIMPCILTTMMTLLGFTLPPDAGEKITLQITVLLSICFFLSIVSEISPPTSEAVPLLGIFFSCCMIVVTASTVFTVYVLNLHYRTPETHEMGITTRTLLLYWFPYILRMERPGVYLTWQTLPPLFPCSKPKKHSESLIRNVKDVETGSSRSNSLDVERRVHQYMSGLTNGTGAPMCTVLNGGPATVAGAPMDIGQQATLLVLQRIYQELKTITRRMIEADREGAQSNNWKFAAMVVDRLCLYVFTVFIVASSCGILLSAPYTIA
experimentalDetails: cell-based
Assay type: cell-based
experimentalContext: agonist panel, Fig 5A
Counter-ions that a name gives are not always drawn.
reportedEndpoint: response to 100 μM ligand relative to 100 μM ACh (in words)

[[record]]
molecule = "NC[C@H](O)c1ccc(O)c(O)c1 [NOR, norepinephrine]"
valuemeasured = "No response"

[[record]]
molecule = "c1ccc([C@H]2CN3CCSC3=N2)cc1 [LEV, (-)-tetramisole hydrochloride]"
valuemeasured = "No response"

[[record]]
molecule = "C[N+](C)(C)CC(=O)O"
valuemeasured = "No response"

[[record]]
molecule = "CN1CCCN=C1/C=C/c1cccc(O)c1"
valuemeasured = "smaller response"

[[record]]
molecule = "C[N+]1(C)CCN(c2ccccc2)CC1"
valuemeasured = "smaller response"

[[record]]
molecule = "CN1CCCN=C1/C=C/c1cccs1"
valuemeasured = "minimal response"

[[record]]
molecule = "C[N+](C)(CCOc1ccccc1)Cc1ccccc1"
valuemeasured = "No response"

[[record]]
molecule = "Cc1ccsc1/C=C/C1=NCCCN1C"
valuemeasured = "minimal response"

[[record]]
molecule = "NCCc1ccc(O)c(O)c1"
valuemeasured = "No response"

[[record]]
molecule = "NCCc1ccc(O)cc1"
valuemeasured = "No response"


----------
Tested on: Gpu-ACR-16
experimentalDetails: Voltage-clamp electrophysiology, N-AChR reconstituted in Xenopus laevis oocytes
Type: cell-based, Gonglyonema pulchrum
experimentalContext: agonist panel, Fig 5C
Counter-ions that a name gives are not always drawn.
reportedEndpoint: response to 100 μM ligand relative to 100 μM ACh (in words)

[[record]]
compound = "c1ccc([C@H]2CN3CCSC3=N2)cc1 [LEV, (-)-tetramisole hydrochloride]"
assaysystem = "Gpu-ACR-16"
valuemeasured = "No response"

[[record]]
compound = "CN1CCCN=C1/C=C/c1cccs1 [PYR, pyrantel]"
assaysystem = "Gpu-ACR-16"
valuemeasured = "minimal response"

[[record]]
compound = "C[N+](C)(C)CC(=O)O [BET, betaine]"
assaysystem = "Gpu-ACR-16"
valuemeasured = "No response"

[[record]]
compound = "NCCc1ccc(O)cc1 [TYR, tyramine]"
assaysystem = "Gpu-ACR-16"
valuemeasured = "No response"

[[record]]
compound = "NCCc1ccc(O)c(O)c1 [DA, dopamine]"
assaysystem = "Gpu-ACR-16"
valuemeasured = "No response"

[[record]]
compound = "NC[C@H](O)c1ccc(O)c(O)c1 [NOR, norepinephrine]"
assaysystem = "Gpu-ACR-16"
valuemeasured = "No response"

[[record]]
compound = "CN1CCCN=C1/C=C/c1cccc(O)c1 [OXA, oxantel]"
assaysystem = "Gpu-ACR-16"
valuemeasured = "smaller response"

[[record]]
compound = "Cc1ccsc1/C=C/C1=NCCCN1C [MOR, morantel]"
assaysystem = "Gpu-ACR-16"
valuemeasured = "minimal response"

[[record]]
compound = "C[N+](C)(CCOc1ccccc1)Cc1ccccc1 [BEPH, bephenium]"
assaysystem = "Gpu-ACR-16"
valuemeasured = "No response"

[[record]]
compound = "CNC[C@H](O)c1ccc(O)c(O)c1 [EPI, epinephrine]"
assaysystem = "Gpu-ACR-16"
valuemeasured = "No response"

[[record]]
compound = "C[N+]1(C)CCN(c2ccccc2)CC1 [DMPP, dimethylphenylpiperazinium]"
assaysystem = "Gpu-ACR-16"
valuemeasured = "smaller response"

